The reported measurements were obtained from patent US20190248900A1.

Assay System: T1, M7
T1 construct: also called PD1 mutant M7
Assay Notes: scFv-phage ELISA
Value Type: OD490
# answer = number (no unit)

Solved entries:
[
  {
    "Binder": "PD1-45F1 (antibody, V domains shown, scFv-phage in the screening ELISA; later whole IgG) VH: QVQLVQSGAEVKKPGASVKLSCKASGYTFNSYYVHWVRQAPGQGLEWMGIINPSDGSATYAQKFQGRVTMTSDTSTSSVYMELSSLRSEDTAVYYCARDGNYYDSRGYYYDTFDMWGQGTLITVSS VL: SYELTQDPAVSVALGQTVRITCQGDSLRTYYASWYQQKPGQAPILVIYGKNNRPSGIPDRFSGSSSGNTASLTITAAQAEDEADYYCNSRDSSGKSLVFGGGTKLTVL",
    "OD490": 3.8
  },
  {
    "Binder": "PD1-31F3 (antibody, V domains shown, scFv-phage in the screening ELISA; later whole IgG) VH: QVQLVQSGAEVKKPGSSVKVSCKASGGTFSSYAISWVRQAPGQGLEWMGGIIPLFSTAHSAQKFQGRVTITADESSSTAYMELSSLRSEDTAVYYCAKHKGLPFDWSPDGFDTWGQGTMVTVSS VL: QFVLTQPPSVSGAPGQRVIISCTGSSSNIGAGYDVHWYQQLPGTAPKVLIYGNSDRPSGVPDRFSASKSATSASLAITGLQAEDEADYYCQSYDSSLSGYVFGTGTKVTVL",
    "OD490": 0.7
  }
]

Req: OD490 lookup needed for PD1-41C9 (antibody, V domains shown, scFv-phage in the screening ELISA; whole IgG in the other assays) VH: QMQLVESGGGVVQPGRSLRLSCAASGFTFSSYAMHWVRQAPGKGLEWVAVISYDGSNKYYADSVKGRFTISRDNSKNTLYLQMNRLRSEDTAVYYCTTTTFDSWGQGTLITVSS VL: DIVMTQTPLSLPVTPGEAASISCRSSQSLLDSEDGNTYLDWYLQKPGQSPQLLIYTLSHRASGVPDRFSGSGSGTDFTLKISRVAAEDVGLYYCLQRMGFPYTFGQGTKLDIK , thanks.
Resp: 0.8
